# SYSTEM UNDER TEST: Human CARM1 (PRMT4) (Homo sapiens)
# Construct: Flag-CARM1-His; made in house; host or cells: HEK 293F cells (BacMam baculovirus)
# Sequence (Q86X55 1-585 isoform Q86X55-1): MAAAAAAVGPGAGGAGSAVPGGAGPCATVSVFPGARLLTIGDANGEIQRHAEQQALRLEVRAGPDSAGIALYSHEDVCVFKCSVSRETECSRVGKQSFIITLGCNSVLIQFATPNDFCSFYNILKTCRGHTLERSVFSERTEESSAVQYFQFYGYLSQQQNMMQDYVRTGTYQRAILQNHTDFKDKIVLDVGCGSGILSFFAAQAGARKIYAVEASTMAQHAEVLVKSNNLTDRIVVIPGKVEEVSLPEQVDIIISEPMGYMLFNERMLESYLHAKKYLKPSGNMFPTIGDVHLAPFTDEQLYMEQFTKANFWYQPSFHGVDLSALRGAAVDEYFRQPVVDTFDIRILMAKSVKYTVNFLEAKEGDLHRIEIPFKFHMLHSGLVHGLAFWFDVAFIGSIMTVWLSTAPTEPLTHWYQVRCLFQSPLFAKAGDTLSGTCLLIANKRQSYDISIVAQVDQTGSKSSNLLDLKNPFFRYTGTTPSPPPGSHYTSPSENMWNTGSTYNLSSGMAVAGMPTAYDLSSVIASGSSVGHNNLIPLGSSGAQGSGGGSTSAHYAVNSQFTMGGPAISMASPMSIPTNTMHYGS
# EXPERIMENT NOTES: CARM1 Biochemical Assay (3H-SAM Flashplate, peptide substrate)
# TEST CONDITIONS: single experiment or average of multiple experiments
OBSERVATION TYPE: IC50 (µM)
Enter your answer as a number in µM; do not include the unit.

See these solved cases before continuing.
COMPOUND: CN(CCN)Cc1c[nH]nc1-c1ccc(OC(F)F)cc1 [Compound 94]
MEASUREMENT UNITS: µM
MEASURED RESULT: 0.873
//
COMPOUND: CCn1ncc(CN(C)CCNC)c1-c1ccc(OC(C)C)cc1 [Compound 252]
MEASUREMENT UNITS: µM
MEASURED RESULT: 0.531
//
COMPOUND: CNCCN(C)Cc1c[nH]nc1-c1cc(F)ccc1F [Compound 50]
MEASUREMENT UNITS: µM
MEASURED RESULT: 4.32
//
COMPOUND: CNCCN(C)Cc1c[nH]nc1-c1ccc(N)cc1 [Compound 33]
MEASUREMENT UNITS: µM
MEASURED RESULT: 1.38
//
COMPOUND: CNCCN(C)Cc1cn(C)nc1-c1ccc(OC(C)C)cc1 [Compound 243]
MEASUREMENT UNITS: µM
MEASURED RESULT: 0.301
//
COMPOUND: CC(C)Oc1ccc(-c2n[nH]cc2CN(C)CCN)cc1 [Compound 67]
MEASUREMENT UNITS: µM
MEASURED RESULT: 0.247
//
COMPOUND: CNCCN(C)Cc1cn(C2CCCC2)nc1-c1ccc(OC(C)C)cc1 [Compound 214]
MEASUREMENT UNITS: µM
MEASURED RESULT: 0.168
//
COMPOUND: CCOC(=O)c1cccc(-c2n[nH]cc2CN(C)CCN)c1 [Compound 150]
MEASUREMENT UNITS: µM
MEASURED RESULT: 2.42
//
COMPOUND: Cc1cccc(-c2n[nH]cc2CN(C)CCN)c1 [Compound 131]
MEASUREMENT UNITS: µM
MEASURED RESULT: 1.18
//
COMPOUND: COc1ccc(-c2n[nH]cc2CN(C)CCN)c(Cl)c1 [Compound 146]
MEASUREMENT UNITS: µM
MEASURED RESULT: 5.77

Data request: Can you share its IC50? I mean this compound: CNCCN(C)Cc1cn(C(C)C)nc1-c1ccc(F)cc1 [Compound 15]
Data returned: 3.4

Data request: Which value of IC50 has been reported for CN(CCN)Cc1n[nH]cc1-c1ccc(Cl)cc1 [Compound 102] in the records?
Data returned: 1.06

Data request: IC50 lookup needed for CCn1cc(CN(C)CCNC)c(-c2ccc(OC(C)C)cc2)n1 [Compound 213] , thanks.
Data returned: 0.2

###

Below, each entry is listed with its recorded IC50.
# SYSTEM UNDER TEST: human PRMT8 (Homo sapiens)
# Sequence (Q9NR22 whole entry): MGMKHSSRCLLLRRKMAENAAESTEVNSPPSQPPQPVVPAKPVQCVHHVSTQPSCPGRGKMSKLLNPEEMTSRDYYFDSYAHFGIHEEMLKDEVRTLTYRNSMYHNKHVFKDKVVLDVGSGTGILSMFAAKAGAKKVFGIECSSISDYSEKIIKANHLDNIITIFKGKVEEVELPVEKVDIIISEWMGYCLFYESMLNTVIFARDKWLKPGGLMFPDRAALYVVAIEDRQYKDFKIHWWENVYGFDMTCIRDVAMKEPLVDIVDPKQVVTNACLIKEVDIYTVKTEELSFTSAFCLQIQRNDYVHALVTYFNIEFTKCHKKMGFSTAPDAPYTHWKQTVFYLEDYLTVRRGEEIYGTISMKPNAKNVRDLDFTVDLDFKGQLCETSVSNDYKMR
# EXPERIMENT NOTES: PRMT8 Biochemical Assay (3H-SAM Flashplate, peptide substrate)
# TEST CONDITIONS: single experiment or average of multiple experiments
The response must be a number in µM with no trailing unit.

MOLECULE: COCCOc1ccc(-c2n[nH]cc2CN(C)CCN)cc1
IC50 / µM: 0.284

Data request: Consider the molecule Cc1ccc(-c2n[nH]cc2CN(C)CCN)c(C)c1 and give its measured IC50.
Data returned: 1.89

Data request: # get_value(readout='IC50', item= CNC(=O)c1cc(-c2n[nH]cc2CN(C)CCN)ccc1Oc1ccccc1 )
Data returned: 0.66

Data request: Item CN(CCN)Cc1c[nH]nc1-c1ccc(OCCN2CCOCC2)cc1 has what recorded IC50?
Data returned: 3.26

Data request: Give the measured IC50 of CN(CCN)Cc1c[nH]nc1-c1cc(F)cc(Cl)c1 .
Data returned: 0.218

Data request: Which IC50 value is on record for CNCCN(C)Cc1c[nH]nc1-c1ccc(OCC(C)C)cc1 ?
Data returned: 0.0185

Data request: So what's the measured IC50 for this one? CC(C)Cc1ccc(-c2c[nH]nc2CN(C)CCN)cc1
Data returned: 0.16

Data request: Quick one: IC50 of CNCCN(C)Cc1c[nH]nc1-c1ccc(C)cc1C ?
Data returned: 2.31

Data request: Please look up its IC50: CNCCN(C)Cc1c[nH]nc1-c1ccc(N)cc1
Data returned: 1.43

Data request: Can you look up the measured IC50 of CC[C@H](C)Oc1ccc(-c2n[nH]cc2CN(C)CCNC)cc1 for me?
Data returned: 0.013

Data request: Returns the measured IC50 for the input molecule. Input: CNCCN(C)Cc1cn(C)nc1-c1ccc(Oc2ccccc2)cc1
Data returned: 0.627

Data request: Data request, read-out IC50, for CC(C)CN1C(=O)COc2ccc(-c3n[nH]cc3CN(C)CCN)cc21
Data returned: 4.11

Data request: Requested field: IC50. Item: COc1cc(F)ccc1-c1n[nH]cc1CN(C)CCN
Data returned: 1.37

Data request: Dear colleague, I am looking for the recorded IC50 of the following molecule: CN(CCN)Cc1c[nH]nc1-c1ccc(Cl)cc1
Data returned: 0.207

Data request: IC50 for CNCCN(C)Cc1c[nH]nc1-c1cccc([N+](=O)[O-])c1 ?
Data returned: 0.52

Data request: Param item = CN(CCN)Cc1cnn(C)c1-c1ccc(F)cc1 ; retrieve measured IC50.
Data returned: 2.43

Data request: Look up IC50: CNCCN(C)Cc1cnn(C)c1-c1ccc(Oc2ccccc2)cc1
Data returned: 0.279

Data request: Reported IC50 for CNCCN(C)Cc1c[nH]nc1-c1ccc2ccccc2c1 : what is it?
Data returned: 0.17

Data request: # IC50 lookup, item CN(CCN)Cc1c[nH]nc1-c1ccc2c(c1)NC(=O)CO2
Data returned: 3.08

Data request: Dear colleague, I am looking for the recorded IC50 of the following molecule: CNCCN(C)Cc1c[nH]nc1-c1ccc(NCC(C)C)cc1
Data returned: 0.0576

Data request: Tell me the measured IC50 of CN(CCN)Cc1c[nH]nc1-c1cccc(F)c1 , please.
Data returned: 0.347
